system-tested: T1, 4H2518-bA
T1 chain: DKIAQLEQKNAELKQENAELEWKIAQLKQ
assay-explanation: two-hybrid library CCNG1;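 note: natural log of median RNA to DNA barcode read ratio; higher means stronger binding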
measured-metric: interaction score

Example entries begin here.
# binder, quantitative-readout
rows = [
    ("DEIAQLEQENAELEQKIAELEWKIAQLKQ [4H166-bA]", 2.14),
    ("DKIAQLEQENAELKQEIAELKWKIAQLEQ [4H2253-bA]", 0.247),
    ("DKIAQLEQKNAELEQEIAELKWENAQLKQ [4H2444-bA]", -0.678),
]

a: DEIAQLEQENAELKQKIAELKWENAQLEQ [4H235-bA]
b: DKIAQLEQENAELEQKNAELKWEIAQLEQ [4H2233-bA]
c: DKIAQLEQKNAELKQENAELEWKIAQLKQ [4H2518-bA]
d: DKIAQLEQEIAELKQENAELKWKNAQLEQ [4H2143-bA]
e: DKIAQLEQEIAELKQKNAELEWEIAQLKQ [4H2162-bA]
// sort entries: interaction score, high to low Put the labels in the requested order and list them out.
b, e, c, d, a
(b: 2.31, e: 0.642, c: 0.343, d: -0.404, a: -0.69)

# credit: paper PMC10397247
